Test system: PC-3
Assay: Cytotoxicity towards prostatic carcinoma (PC3) cells in human
Type: functional, cell-based
Form field: pIC50 (one value per entry).
Keep it numeric: pIC50 is minus log10 of the concentration in mol/L.

Below are worked cases with known answers.
>>> value_reported("COc1ccc(-c2nc3cc(-c4nc5cc(N)ccc5[nH]4)ccc3[nH]2)cc1")
4.72
>>> value_reported("COc1ccc(-c2nc3cc(-c4nc5cc(CCCN(C)C)ccc5[nH]4)ccc3[nH]2)cc1")
4.55
>>> value_reported("CCOc1ccc(-c2nc3cc(-c4nc5cc(N6CCN(C)CC6)ccc5[nH]4)ccc3[nH]2)cc1")
6.15
>>> value_reported("COc1ccc(-c2nc3cc(-c4nc5cc(OC6CCN(C)CC6)ccc5[nH]4)ccc3[nH]2)cc1")
6.42
>>> value_reported("COc1ccc(-c2nc3cc(-c4nc5cc(CN(C)C)ccc5[nH]4)ccc3[nH]2)cc1")
4.28

pIC50 recorded for this compound, `COc1ccc(-c2nc3cc(-c4nc5cc(N6CCN(C)CC6)ccc5[nH]4)ccc3[nH]2)cc1` , is 6.08

pIC50 recorded for this compound, `COc1ccc(-c2nc3cc(-c4nc5cc(N(C)C)ccc5[nH]4)ccc3[nH]2)cc1` , is 5.31

pIC50 recorded for this compound, `COc1ccc(-c2nc3cc(-c4nc5cc(CCN(C)C)ccc5[nH]4)ccc3[nH]2)cc1` , is 4.37

###

Tested on: RPMI 8402
Assay: Cytotoxicity towards lymphoblastoma (RPMI 8402) cells in human
Format: functional, cell-based
Form field: pIC50 (one value per entry).
Keep it numeric: pIC50 is minus log10 of the concentration in mol/L.

Below are worked cases with known answers.
>>> value_reported("COc1ccc(-c2nc3cc(-c4nc5cc(CN(C)C)ccc5[nH]4)ccc3[nH]2)cc1")
6.42
>>> value_reported("COc1ccc(-c2nc3cc(-c4nc5cc(CCCN(C)C)ccc5[nH]4)ccc3[nH]2)cc1")
5.92

Proceeding to the next molecule to report its pIC50.
pIC50 recorded for this molecule, `COc1ccc(-c2nc3cc(-c4nc5cc(N(C)C)ccc5[nH]4)ccc3[nH]2)cc1` , is 6.89

###

System: RPMI 8402
Assay: Cytotoxicity towards lymphoblastoma (RPMI 8402) cells in human
Assay type: functional, cell-based
Form field: pIC50 (one value per entry).
Keep it numeric: pIC50 is minus log10 of the concentration in mol/L.

Below are worked cases with known answers.
>>> value_reported("CCOc1ccc(-c2nc3cc(-c4nc5cc(N6CCN(C)CC6)ccc5[nH]4)ccc3[nH]2)cc1")
8.30
>>> value_reported("COc1ccc(-c2nc3cc(-c4nc5cc(CCN(C)C)ccc5[nH]4)ccc3[nH]2)cc1")
6.21
>>> value_reported("COc1ccc(-c2nc3cc(-c4nc5cc([N+](=O)[O-])ccc5[nH]4)ccc3[nH]2)cc1")
6.19

Proceeding to the next compound to report its pIC50.
pIC50 recorded for this compound, `COc1ccc(-c2nc3cc(-c4nc5cc(N)ccc5[nH]4)ccc3[nH]2)cc1` , is 5.77
